System: Fibroblast
protocol-text: Multiplex assay against human fibroblast
Type: toxicity, cell-based
cond: 48 h, 10 µM, compound concentration 10 uM, replicate 1
Reported Population Healthy Nuclei (%) values are given for each entry in this list.
State just the number; it will be interpreted in %.

Some compounds with known Population Healthy Nuclei (%) results, for comparison:
CN1CCN(C(=O)C(C)(C)c2ccc(C(=O)Nc3cn4cc(-c5ccncc5)ccc4n3)cc2)CC1
32
Cc1cc(C)c(S(=O)(=O)N(Cc2ccc(-c3cccc(S(C)(=O)=O)c3)cc2)Cc2ccc(C(F)(F)F)o2)c(C)c1
49
CN(C)C(=O)C(CCN1CCC(O)(c2ccc(Cl)cc2)CC1)(c1ccccc1)c1ccccc1.Cl [LOPERAMIDE HYDROCHLORIDE]
38

Inquiry: Bench note: what Population Healthy Nuclei (%) did CCOc1cc2ncc(C#N)c(Nc3ccc(OCc4ccccn4)c(Cl)c3)c2cc1NC(=O)/C=C/CN(C)C show?
Reply text: 42

Inquiry: Bench note: what Population Healthy Nuclei (%) did CCCn1c(=O)c2[nH]c(-c3cnn(Cc4cccc(C(F)(F)F)c4)c3)nc2n(CC)c1=O show?
Reply text: 26

Inquiry: Bench note: what Population Healthy Nuclei (%) did Cl.O=C(c1ccc(Nc2nccc(-c3cc4ccccc4s3)n2)cc1)N1CCC(N2CCCC2)CC1 show?
Reply text: 24

Inquiry: Bench note: what Population Healthy Nuclei (%) did O=C(Nc1ccc(-n2nc(-c3cccnc3)cc2C(F)(F)F)cn1)c1ccc(-c2ccccc2)c(F)c1 show?
Reply text: 50

Inquiry: Bench note: what Population Healthy Nuclei (%) did COCC(=O)NC/C=C/c1ccc2ncnc(Nc3ccc(Oc4ccc(C)nc4)c(C)c3)c2c1 show?
Reply text: 44

====

Reported Population Pyknosed Nuclei (%) values are given for each entry in this list.
System: U2OS
protocol-text: Multiplex assay against U2OS
Format: toxicity, cell-based
cond: human, 48 h, 10 µM, compound concentration 10 uM, replicate 2
State just the number; it will be interpreted in %.

Some molecules with known Population Pyknosed Nuclei (%) results, for comparison:
S=C(NCCCc1c[nH]cn1)NCCCN(Cc1ccc(Cl)c(Cl)c1)c1ccc(Br)cn1
26
O=C1N/C(=N/c2ccccc2F)S/C1=C\c1ccc(C(=O)O)cc1
12
O=C(Nc1ccc(-n2nc(-c3cccnc3)cc2C(F)(F)F)cn1)c1ccc(-c2ccccc2)c(F)c1
7

Inquiry: Bench note: what Population Pyknosed Nuclei (%) did CCOc1cc(C(=O)N2CCC(N3CCN(C)CC3)CC2)ccc1Nc1ncc2c(n1)N(C1CCCC1)c1ccccc1C(=O)N2C show?
Reply text: 62

Inquiry: Bench note: what Population Pyknosed Nuclei (%) did CCN1CCN(Cc2ccc(Nc3ncc(F)c(-c4cc(F)c5nc(C)n(C(C)C)c5c4)n3)nc2)CC1.CS(=O)(=O)O show?
Reply text: 36

Inquiry: Bench note: what Population Pyknosed Nuclei (%) did CCn1c(=O)c(-c2ccc(-c3cncs3)cc2Cl)cc2cnc(Nc3ccc(N4CCN(C)CC4)cc3)nc21 show?
Reply text: 13

====

System: Fibroblast
protocol-text: Incucyte cell viability with human fibroblast; note: filed as whole numbers so only -1 and 0 and 1 occur
Format: toxicity, cell-based
cond: 6 h, 10 µM, compound concentration 10 uM, replicate number 1, timepoint 6 hours
measurement-kind: Growth Rate
Keep it simple and answer with nothing but the number.

Some molecules with known Growth Rate results, for comparison:
C[C@@H]1CN(c2cc(-c3n[nH]c4ccc(OC5(C)CC5)cc34)ncn2)C[C@H](C)O1
1
c1ccc(Nc2nc3c(s2)CCCc2[nH]ncc2-3)nc1
0
Cc1cc([C@@H](C)Nc2cccc(-c3cc(C)c(C(=O)N[C@@H](C)C(=O)O)c(C)c3)c2)ccc1Cl
1
O=C(c1ccc(C(=O)N2CCC(N3CCCC3)CC2)c(Nc2ccccc2)c1)N1CCC(N2CCCC2)CC1
1
Cc1c(C(=O)O)cc(-c2ccc(C3CCNCC3)cc2)c2ccc(-c3ccc(C(F)(F)F)cc3)cc12.Cl
0
C[C@H]1Oc2cc(cnc2N)-c2c(nn(C)c2C#N)CN(C)C(=O)c2ccc(F)cc21
0
Cc1nnc2c3ccccc3c(N[C@@H](C)[C@H](c3ccccc3)N(C)C)nn12
1

Inquiry: Bench note: what Growth Rate did CN1CCC(=C2c3ccccc3CC(=O)c3sccc32)CC1.O=C(O)/C=C/C(=O)O [KETOTIFEN FUMARATE] show?
Reply text: 0
